Collected %Inh values appear next to each entry.
tested on: CDKL2; settings: concentration: 1 μM, replicates: in singlicate; n = 1;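 further: KINOMEscan kinase panel screen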
# unit: % | format: bare number

Solved cases below.
- Compound: "CCC(=O)c1c(-c2ccccc2)c2cc(Cl)ccc2c(=O)n1Cc1cc(C(=O)NC2CC2)n(C)n1"
  Measurement kind: "%Inh"
  Units text: "%"
  Experimental result: 3
- Compound: "COc1cccc(C2=C(Nc3cccc(C(=O)O)c3)C(=O)NC2=O)c1 [SB-390770]"
  Measurement kind: "%Inh"
  Units text: "%"
  Experimental result: 24
- Compound: "COc1ccc(-n2cnc3c(N)ncnc32)cc1 [SKF-97236]"
  Measurement kind: "%Inh"
  Units text: "%"
  Experimental result: 1
- Compound: "COc1ccc(-c2cc3c(C)nc(N)nc3n([C@H]3CC[C@H](OCCO)CC3)c2=O)cn1"
  Measurement kind: "%Inh"
  Units text: "%"
  Experimental result: 0
- Compound: "CCCC(=O)Nc1n[nH]c2ncc(-c3cccc4ccccc34)cc12 [SB-642057]"
  Measurement kind: "%Inh"
  Units text: "%"
  Experimental result: 0
- Compound: "CN1C(=O)C(Nc2ccccc2)=C(c2ccccc2)C1=O [SB-300079]"
  Measurement kind: "%Inh"
  Units text: "%"
  Experimental result: 13
- Compound: "CN1C(=O)C(Nc2cc(Cl)c(O)c(Cl)c2)=C(c2ccc(Cl)cc2)C1=O [SB-404321]"
  Measurement kind: "%Inh"
  Units text: "%"
  Experimental result: 7
- Compound: "O=C(Nc1ccc2c(c1)OCO2)NC1CCN(c2ccnc(NCc3ccc(F)cc3)n2)CC1 [GSK1379859]"
  Measurement kind: "%Inh"
  Units text: "%"
  Experimental result: 13

Request: Report %Inh for CCc1ccc(-c2ccc3c(c2)-c2nn(C)cc2S(=O)(=O)N3C)cc1 tested on CDKL2.
Response: 19

Request: Quick one: Cl.NS(=O)(=O)c1cccc(Nc2cc(-c3ccc(F)cc3)n[nH]2)c1 [GW824645]
Response: 0

Request: Also COC(=O)c1c(-c2ccccc2)c2cc(Br)ccc2c(=O)n1Cc1ccc(S(C)(=O)=O)cc1 ?
Response: 0

---

test system: FLT1; conditions: concentration: 1 μM, replicates: in singlicate; n = 1
Measurement kind: %Inh

Answered examples (2):
- Compound: "COc1cc2nccc(Nc3cccc(Oc4ccccc4)c3)c2cc1OC.Cl [GW284543]"
  Tested system: "FLT1"
  %Inh: "24%"
- Compound: "O=C(Nc1n[nH]c2cc(-c3ccccc3F)ccc12)C1CC1 [SB-733371]"
  Tested system: "FLT1"
  %Inh: "29%"

Request: Entry CN1C(=O)C(Nc2cc(Cl)c(O)c(Cl)c2)=C(c2ccc(Cl)cc2)C1=O [SB-404321] : reported %Inh = ?
Response: 0%

Request: Now the compound O=C1NC(=O)C(c2ccccc2)=C1Nc1cccc(O)c1 [SB-390534]
Response: 2%

Request: Same lookup for CCCC(=O)Nc1n[nH]c2ncc(-c3cccc4ccccc34)cc12 [SB-642057] , please.
Response: 10%

Request: COc1ccc(-c2cc3c(C)nc(N)nc3n([C@H]3CC[C@H](OCCO)CC3)c2=O)cn1 , same question.
Response: 11%

Request: One more compound: O=C(Nc1ccc2c(c1)OCO2)NC1CCN(c2ccnc(NCc3ccc(F)cc3)n2)CC1 [GSK1379859]
Response: 15%

Request: Note, next up: CCC(=O)c1c(-c2ccccc2)c2cc(Cl)ccc2c(=O)n1Cc1cc(C(=O)NC2CC2)n(C)n1
Response: 0%

Request: What about this compound? Cc1nnc(-c2ccc3ncn(-c4ccc(S(C)=O)cc4)c3c2)o1 (stereo not drawn)
Response: 8%

Request: Similarly, Cc1c(Cn2c(C)nn3c(=O)cc(N4CCO[C@H](C)C4)nc23)cccc1C(F)(F)F [GSK2373690] ?
Response: 22%

Request: Cool, now COc1cccc(C2=C(N(C)c3ccccc3)C(=O)NC2=O)c1 [SB-334865]
Response: 16%

Request: Again, but for COC(=O)c1c(-c2ccccc2)c2cc(Br)ccc2c(=O)n1Cc1ccc(NC(=O)CCC(=O)O)cc1
Response: 0%

Request: // query: Cc1ccc(Oc2ccc(Nc3ncnc4cc[nH]c34)cc2C)cn1
Response: 92.5%

---

tested on: RSK1(Kin.Dom.1-N-terminal); construct: gene RPS6KA1; settings: concentration: 1 μM, replicates: in singlicate; n = 1
Measurement kind: %Inh (%)
# number only, unit % dropped from output

- Compound: "COc1cc2ncn(-c3cc(OCCCc4ccccc4)c(C(N)=O)s3)c2cc1OC [GSK205189]"
  Measurement kind: "%Inh"
  Experimental result: 2

Request: For the compound CCS(=O)c1ccc(-c2coc3ccc(-c4nnc(C)o4)cc23)cc1 (stereo not shown) , what %Inh is on record?
Response: 0

Request: One more compound: COc1cc(OC)cc(-c2cc3cnc(N)nc3nc2NC(=O)NC(C)(C)C)c1
Response: 23

---

test system: PLK1; conditions: concentration: 1 μM, replicates: in singlicate; n = 1
Measurement kind: %Inh (%)
Report the figure in % without appending any unit label.

- Molecule: "OCCCNc1nccc(-c2c(-c3cccc(C(F)(F)F)c3)nn3cc(C(F)(F)F)ccc23)n1 [GW630813]"
  Experimental result: 0

Please examine the following record next.
Request: // %Inh lookup, key: Cc1ccc(-c2ccc3c(ccc4sc5c(c43)NC[C@@H](C)N=C5N(C)C)n2)cn1
Response: 0

---

In this section, each of the molecules is paired with its reported %Inh.
test system: CTK; construct: gene MATK; conditions: concentration: 1 μM, replicates: in singlicate; n = 1
Numbers only; they are read as %.

- Molecule: "COc1cccc(C2=C(N(C)c3ccccc3)C(=O)NC2=O)c1"
  Units text: "%"
  %Inh: 0
- Molecule: "Cc1nnc(-c2ccc3ncn(-c4ccc(S(C)=O)cc4)c3c2)o1 (stereo not drawn)"
  Units text: "%"
  %Inh: 0
- Molecule: "O=C(Nc1ccc2c(c1)OCO2)NC1CCN(c2ccnc(NCc3ccc(F)cc3)n2)CC1"
  Units text: "%"
  %Inh: 0
- Molecule: "COc1cccc(-n2cnc3c(N)ncnc32)c1"
  Units text: "%"
  %Inh: 48
- Molecule: "CCCC(=O)Nc1n[nH]c2ncc(-c3cccc4ccccc34)cc12"
  Units text: "%"
  %Inh: 0
- Molecule: "CCS(=O)(=O)c1ccc(OC)c(Nc2ncc(-c3ccc(F)cc3)o2)c1.Cl"
  Units text: "%"
  %Inh: 0

Request: Please look up its %Inh: Nc1n[nH]c2ncc(-c3ccccc3)cc12
Response: 0

Request: Entry COC(=O)c1c(-c2ccccc2)c2cc(Br)ccc2c(=O)n1Cc1ccc(S(C)(=O)=O)cc1 please
Response: 35

Request: Same again, this time with Cc1ccccc1COc1cc(-n2cnc3cc(Cl)ccc32)sc1C(N)=O
Response: 0

---

tested on: RSK1(Kin.Dom.2-C-terminal); construct: gene RPS6KA1; conditions: concentration: 1 μM, replicates: in singlicate; n = 1
Response field label takes Criterion met when %Inh is strictly below 10% and Criterion not met in all other cases.

- Structure string: "CN1C(=O)C(Nc2ccccc2)=C(c2ccccc2)C1=O"
  Category label: "Criterion met"
- Structure string: "Nc1ncnc2c1ncn2-c1ccc(Cl)cc1"
  Category label: "Criterion met"
- Structure string: "COc1cc(Nc2ccnc3ccc(C(F)(F)F)cc23)cc(OC)c1OC"
  Category label: "Criterion met"

// switching to the query molecule
Request: In the record for O=C(NCc1cccs1)c1cc(C(=O)c2c(Cl)cccc2Cl)c[nH]1 , is %Inh less than 10%?
Response: Criterion not met

---

system: PRKCI; conditions: concentration: 1 μM, replicates: in singlicate; n = 1
Measurement kind: %Inh (%)
Report as a plain number; the unit % is understood.

- Compound: "CCCC(=O)Nc1n[nH]c2ncc(-c3cccc4ccccc34)cc12 [SB-642057]"
  Measurement kind: "%Inh"
  Experimental result: 15
- Compound: "COc1cc(OC)cc(-c2cc3cnc(N)nc3nc2NC(=O)NC(C)(C)C)c1"
  Measurement kind: "%Inh"
  Experimental result: 2
- Compound: "COc1ccc(CNC(=O)NC2CCN(c3ccnc(Nc4ccc(F)cc4)n3)C2)cc1 (stereo not drawn) [GSK1379706]"
  Measurement kind: "%Inh"
  Experimental result: 0
- Compound: "CN1C(=O)C(Nc2cc(Cl)c(O)c(Cl)c2)=C(c2ccc(Cl)cc2)C1=O [SB-404321]"
  Measurement kind: "%Inh"
  Experimental result: 3
- Compound: "Cc1cccc(-c2nc(Nc3ccc4c(cnn4C)c3)c3ccccc3n2)n1 [GW876731]"
  Measurement kind: "%Inh"
  Experimental result: 0

Request: Report %Inh for Cc1cccc(-c2cc(-c3c[nH]nc3-c3ccccn3)ccn2)c1 [GW679395] please.
Response: 4

Request: Input CCC(=O)c1c(-c2ccccc2)c2cc(Cl)ccc2c(=O)n1Cc1ccc(C(=O)O)cc1
Response: 0

Request: Please do the same for O=C(NCc1cccs1)c1cc(C(=O)c2c(Cl)cccc2Cl)c[nH]1 [GW823670] as well.
Response: 0

Request: What about this compound? Cc1nnc(-c2ccc3ncn(-c4ccc(S(C)=O)cc4)c3c2)o1 (stereo not drawn)
Response: 0
